target: Sodium-dependent dopamine transporter (Rattus norvegicus, UniProt P23977); assay: Inhibition of [3H]3-beta-(p-fluorophenyl)tropane-2beta-carboxylic acid methyl ester [3H]7a binding to Dopamine transporter of rat striatal membranes
Sequence (P23977 whole entry): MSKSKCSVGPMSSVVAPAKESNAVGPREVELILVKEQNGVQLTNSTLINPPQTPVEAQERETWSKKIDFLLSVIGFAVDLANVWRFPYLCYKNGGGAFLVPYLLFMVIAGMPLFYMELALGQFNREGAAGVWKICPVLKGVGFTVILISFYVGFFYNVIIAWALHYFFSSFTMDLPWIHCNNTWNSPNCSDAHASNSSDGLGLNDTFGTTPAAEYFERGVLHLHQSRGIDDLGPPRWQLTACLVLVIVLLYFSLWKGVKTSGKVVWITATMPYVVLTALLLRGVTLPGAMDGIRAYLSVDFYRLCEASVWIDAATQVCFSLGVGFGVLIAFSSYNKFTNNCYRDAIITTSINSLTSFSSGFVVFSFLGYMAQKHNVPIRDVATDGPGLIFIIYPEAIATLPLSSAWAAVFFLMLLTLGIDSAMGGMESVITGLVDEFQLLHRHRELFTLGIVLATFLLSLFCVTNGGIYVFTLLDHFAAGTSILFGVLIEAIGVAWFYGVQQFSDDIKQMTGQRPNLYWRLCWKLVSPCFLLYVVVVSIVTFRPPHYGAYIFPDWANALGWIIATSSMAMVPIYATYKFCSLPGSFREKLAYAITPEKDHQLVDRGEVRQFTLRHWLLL
Simple rule here: IC50 less than 3 µM is yes (1), otherwise no (0).

> print(dat)
                                   molecule  label.class
1  CN1CC2CC1C[C@@H](OC(=O)c1ccccc1)C2 (stereo in doubt; 4d)       no (0)
2  COC(=O)C1C(OC(=O)c2ccccc2)C[C@H]2CCC1N2Cc1ccccc1 (some centres undefined)      yes (1)
3  CN1[C@@H]2CC[C@H]1C[C@H](OC(=O)c1ccccc1)C2       no (0)
4  COC(=O)C1C(OC(=O)c2ccccc2)C[C@H]2CCC1[N+]2(C)C (some centres undefined)       no (0)
5  COC(=O)C1C(OC(=O)c2ccccc2)C[C@H]2CCC1N2C(C)=O (some centres undefined)       no (0)
6  CN1CC2CC(OC(=O)c3ccccc3)CC1C2 (stereo in doubt; 4d-(-))      yes (1)
7  CN1CC2CC1C[C@@H](OC(=O)c1ccccc1)C2 (stereo in doubt; 4c)       no (0)
8  COC(=O)C1C2CC[C@H](CC1OC(=O)c1ccccc1)N2 (some centres undefined)      yes (1)
